Assay: Antiproliferative activity against human multidrug-resistant KBVIN cells after 72 hrs by SRB assay
Format: cell-based
Conditions: Homo sapiens, KBVIN
pIC50: −log10 of the molar value.
endpoint: pIC50

Study these solved cases before continuing.
- COc1cc(COC(=O)c2ccc(C#N)cc2)c(-c2c(COC(=O)c3ccc(C#N)cc3)cc(OC)c3c2OCO3)c2c1OCO2: < 4.00
- COc1cc(COC(C)=O)c(-c2c(COC(C)=O)cc(OC)c3c2OCO3)c2c1OCO2: < 4.00
- COc1ccc(C(=O)OCc2cc(OC)c3c(c2-c2c(COC(=O)c4ccc(OC)cc4)cc(OC)c4c2OCO4)OCO3)cc1: < 4.00
- COc1ccc(C(=O)OCc2cc(OC)c3c(c2-c2c(COC(=O)c4ccc(OC)c(OC)c4)cc(OC)c4c2OCO4)OCO3)cc1OC: < 4.00
- COc1cc(COC(=O)C(C)C)c(-c2c(COC(=O)C(C)C)cc(OC)c3c2OCO3)c2c1OCO2: < 4.00

Task: I'd like to know its pIC50. The compound in question is COc1c(Br)c(CO)c(-c2c(CO)c(Br)c(OC)c3c2OCO3)c2c1OCO2
Result: < 4.00

Task: Record request: pIC50 value, item COc1cc(COC(=O)c2ccc(C)cc2)c(-c2c(COC(=O)c3ccc(C)cc3)cc(OC)c3c2OCO3)c2c1OCO2
Result: < 4.00

Task: Which pIC50 is listed for COc1cc(COC(=O)c2ccccc2)c(-c2c(COC(=O)c3ccccc3)cc(OC)c3c2OCO3)c2c1OCO2 ?
Result: < 4.00
